- Test system: HCT116 MTAP KO cells
- PROTOCOL_NOTES: Inhibitory activity against cell proliferation (CellTiter Glo, 6 days), HCT116 MTAP KO
- Assay type: cell-based
- CONDITION_DETAILS: ratio of IC50 HCT116-WT / HCT116 MTAP KO
I'd appreciate it if you marked entries Fulfilled when Selectivity HCT 116-WT/ HCT116 MTAP KO is lower than 30 and Not fulfilled when it is not.

## Input Hello, is Selectivity HCT 116-WT/ HCT116 MTAP KO of the following molecule strictly smaller than 30? Cc1cc2nc(N)c3cnn(C)c3c2cc1C(=O)N1CC(C)CN1c1c(F)cccc1F (stereo not drawn)
## Output Not fulfilled

## Input Hello, is Selectivity HCT 116-WT/ HCT116 MTAP KO of the following molecule strictly smaller than 30? Cc1cc2nc(N)c3cnn(C)c3c2cc1C(=O)N1CCCN1c1ncc(-c2cncs2)cc1F
## Output Not fulfilled

## Input Hello, is Selectivity HCT 116-WT/ HCT116 MTAP KO of the following molecule strictly smaller than 30? COC1CN(C(=O)c2cc3c(cc2Cl)nc(N)c2cnn(C)c23)N(c2ncc(Br)cc2F)C1 (stereo not drawn)
## Output Fulfilled

## Input Hello, is Selectivity HCT 116-WT/ HCT116 MTAP KO of the following molecule strictly smaller than 30? Cc1cc2cc(C(=O)N(Cc3ccc(C(F)(F)F)cn3)N(C)c3ncc4c(ccn4C)n3)ccc2nc1N
## Output Fulfilled

## Input Hello, is Selectivity HCT 116-WT/ HCT116 MTAP KO of the following molecule strictly smaller than 30? Cc1nc(C)c(-c2ccc(CN(C(=O)c3ccc4nc(N)c(C)cc4c3)N(c3ncccn3)C3CC3)nc2)s1
## Output Fulfilled

## Input Hello, is Selectivity HCT 116-WT/ HCT116 MTAP KO of the following molecule strictly smaller than 30? Cn1ncc2c(N)nc3cc(Cl)c(C(=O)N4CC(F)(F)CN4c4ncc(Br)cc4F)cc3c21
## Output Not fulfilled

## Input Hello, is Selectivity HCT 116-WT/ HCT116 MTAP KO of the following molecule strictly smaller than 30? Cc1cc2cc(C(=O)N(Cc3ccc4sc(C5=CCN(C)CC5)nc4c3)N(C)c3ncccn3)ccc2nc1N
## Output Fulfilled

###

- TARGET_OR_TEST_SYSTEM: PRMT5-MTA (Homo sapiens)
- PROTOCOL_NOTES: Enzymatic inhibitory activity against PRMT5-MTA (AlphaScreen)
- Type: biochemical
- CONDITION_DETAILS: read-out: IC50
Entries and their IC50
# number only, unit nM dropped from output

In plain terms, Cc1ncsc1-c1ccc(CN(C(=O)c2ccc3nc(N)c4cnn(C)c4c3c2)N(c2ncccn2)C2CC2)nc1 has a documented IC50 of 4.8

In plain terms, Cn1ncc2c(N)nc3cc(Cl)c(C(=O)N4CC5(CN4c4ncccc4F)CC(F)(F)C5)cc3c21 has a documented IC50 of 6.3

###

- TARGET_OR_TEST_SYSTEM: UniProt O14744
- PROTOCOL_NOTES: Enzymatic inhibitory activity against PRMT5-MTA (AlphaScreen)
- Assay type: biochemical
- CONDITION_DETAILS: read-out: IC50
Entries and their IC50
# number only, unit nM dropped from output

Cc1ccc(-c2ccc(CN(C(=O)c3ccc4nc(N)c(C)cc4c3)N(C)c3ncccn3)nc2)cn1 = 2
Cc1cc2cc(C(=O)N(Cc3ccc(C(F)F)cn3)N(C)c3ncccn3)ccc2nc1N = 2.8
CC1CN(C(=O)c2ccc3nc(N)c4cnn(C)c4c3c2)N(c2ncccc2F)C1 (centres unmarked) = 4.1
Cn1ncc2c(N)nc3cc(Cl)c(C(=O)N4CC5(CN4c4ncc(Cl)cc4F)CC(F)(F)C5)cc3c21 = 6.2

Turning now to a further compound:
In plain terms, [2H]c1nc(C)c(-c2ccc(CN(C(=O)c3ccc4nc(N)c(C)cc4c3)N(c3ncccn3)C3CC3)nc2)s1 has a documented IC50 of 5.7

###

Entries and their pIC50
- TARGET_OR_TEST_SYSTEM: PRMT5-MTA (Homo sapiens, UniProt O14744)
- Sequence (O14744 whole entry): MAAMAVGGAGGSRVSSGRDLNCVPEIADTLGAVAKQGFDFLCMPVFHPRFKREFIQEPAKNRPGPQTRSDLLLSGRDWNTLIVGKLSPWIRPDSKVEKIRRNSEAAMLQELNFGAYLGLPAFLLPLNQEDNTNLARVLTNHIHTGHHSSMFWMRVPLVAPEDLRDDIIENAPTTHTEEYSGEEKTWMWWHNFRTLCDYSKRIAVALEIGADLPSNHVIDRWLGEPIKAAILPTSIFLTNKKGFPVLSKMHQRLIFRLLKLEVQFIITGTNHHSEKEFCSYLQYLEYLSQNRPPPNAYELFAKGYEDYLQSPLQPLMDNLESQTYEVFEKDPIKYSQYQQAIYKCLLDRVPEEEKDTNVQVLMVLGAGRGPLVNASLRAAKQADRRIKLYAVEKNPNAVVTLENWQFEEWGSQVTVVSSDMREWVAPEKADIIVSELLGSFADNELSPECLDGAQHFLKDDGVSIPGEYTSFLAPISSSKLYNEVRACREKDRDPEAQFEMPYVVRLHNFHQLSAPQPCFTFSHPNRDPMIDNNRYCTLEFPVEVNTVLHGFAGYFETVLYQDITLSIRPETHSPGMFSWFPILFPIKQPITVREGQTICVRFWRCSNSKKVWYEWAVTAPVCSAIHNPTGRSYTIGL
- Sequence (Q9BQA1 whole entry partner): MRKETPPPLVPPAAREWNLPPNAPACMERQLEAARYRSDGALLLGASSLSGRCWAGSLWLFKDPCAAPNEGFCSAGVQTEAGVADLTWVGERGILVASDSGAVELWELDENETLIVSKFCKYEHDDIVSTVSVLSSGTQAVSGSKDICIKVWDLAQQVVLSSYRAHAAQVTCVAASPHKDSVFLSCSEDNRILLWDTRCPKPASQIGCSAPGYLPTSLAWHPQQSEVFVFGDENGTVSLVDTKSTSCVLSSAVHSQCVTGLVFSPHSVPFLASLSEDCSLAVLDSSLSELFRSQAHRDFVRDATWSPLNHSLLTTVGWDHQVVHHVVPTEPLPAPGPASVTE
- PROTOCOL_NOTES: Enzymatic inhibitory activity against PRMT5-MTA (AlphaScreen)
- Assay type: biochemical
- CONDITION_DETAILS: read-out: IC50
Keep it numeric: pIC50 is minus log10 of the concentration in mol/L.

Examples from the recorded data:
Cc1cc2nc(N)c3cnn(C)c3c2cc1C(=O)N1CC(C)CN1c1ncccc1C (centres unmarked) [Example 380] = 8.47
Cc1cc2nc(N)c3cnn(C)c3c2cc1C(=O)N1CC(C)CN1c1ccc(C(F)(F)F)cn1 (centres unmarked) [Example 389] = 8.20
Cc1cc2cc(C(=O)N(Cc3ccc(C(F)(F)F)cn3)N(C)c3ncccc3Br)ccc2nc1N [Example 106] = 8.72
Cc1cc2cc(C(=O)N(Cc3ccc(-c4ccn(C)c4)cn3)N(C)c3ncccn3)ccc2nc1N [Example 148] = 9.00

Turning now to a further compound:
In plain terms, C=C1CN(C(=O)c2cc3c(cc2Cl)nc(N)c2cnn(C)c23)N(c2ncc(F)cc2F)C1 [Example 432] has a documented pIC50 of 8.35

###

- TARGET_OR_TEST_SYSTEM: PRMT5-MTA (Homo sapiens)
- PROTOCOL_NOTES: Enzymatic inhibitory activity against PRMT5-MTA (AlphaScreen)
- Type: biochemical
- CONDITION_DETAILS: read-out: IC50
PROPERTY_MEASURED: pIC50
Keep it numeric: pIC50 is minus log10 of the concentration in mol/L.

Examples from the recorded data:
COC1CN(C(=O)c2cc3c(cc2Cl)nc(N)c2cnn(C)c23)N(c2ncc(F)cc2F)C1 (stereo not shown) = 8.34
COC1CN(C(=O)c2cc3c(cc2C)nc(N)c2cnn(C)c23)N(c2ncccc2F)C1 (stereo not shown) = 8.42
Cc1cc2nc(N)c3cnn(C)c3c2cc1C(=O)N1CC2(CN1c1ncccc1F)CC(F)(F)C2 = 8.28

Given the molecule Cc1cc2nc(N)c3cnn(C)c3c2cc1C(=O)N1CC(C)CN1c1ncc(C#N)cc1F (stereo not shown) and test system PRMT5-MTA (Homo sapiens), the measured pIC50 is 8.26

Given the molecule Cc1cc2cc(C(=O)N(Cc3ccc(C4=CCOC4)cn3)N(C)c3ncccn3)ccc2nc1N and test system PRMT5-MTA (Homo sapiens), the measured pIC50 is 8.25

Given the molecule Cc1cc2cc(C(=O)N(Cc3ccc(-c4cnn(C(C)C)c4)cn3)N(C)c3ncccn3)ccc2nc1N and test system PRMT5-MTA (Homo sapiens), the measured pIC50 is 8.74

Given the molecule Cc1cc2cc(C(=O)N(Cc3ccc(-c4ccncc4)cn3)N(C)c3ncccn3)ccc2nc1N and test system PRMT5-MTA (Homo sapiens), the measured pIC50 is 8.72

###

- Test system: HCT116 MTAP KO cells
- PROTOCOL_NOTES: Inhibitory activity against cell proliferation (CellTiter Glo, 6 days), HCT116 MTAP KO
- Type: cell-based
- CONDITION_DETAILS: ratio of IC50 HCT116-WT / HCT116 MTAP KO
PROPERTY_MEASURED: Selectivity HCT 116-WT/ HCT116 MTAP KO
// response body must contain only the number

Examples from the recorded data:
Cc1ncc(-c2ccc(CN(C(=O)c3ccc4nc(N)c(C)cc4c3)N(C)c3ncccn3)nc2)cn1 = 45.73
Cc1cc2cc(C(=O)N(Cc3ccc(-c4cnn(C)c4)cn3)N(C)c3nccc4nccnc34)ccc2nc1N = 23.61
Cc1cc2cc(C(=O)N(Cc3ccc(C(F)(F)F)cn3)N(C)c3nccc(C#N)n3)ccc2nc1N = 15.71
[2H]C([2H])([2H])N(c1ncccn1)N(Cc1ccc(C(F)(F)F)cn1)C(=O)c1ccc2nc(N)c(C)cc2c1 = 27.33
Cc1cc2cc(C(=O)N(Cc3ccc(-c4cnn(C5CCC5)c4)cn3)N(C)c3ncccn3)ccc2nc1N = 16.02
Cc1cc2cc(C(=O)N(Cc3ccc(-c4cnn(C(C)(C)C)c4)cn3)N(C)c3ncccn3)ccc2nc1N = 20.14
Cc1cc2cc(C(=O)N(Cc3ccc(C(F)(F)F)cn3)N(C)c3nccc4cccnc34)ccc2nc1N = 39.42
C=C1CN(C(=O)c2cc3c(cc2Cl)nc(N)c2cnn(C)c23)N(c2ccccc2F)C1 = 24.80

Turning now to a further molecule:
In plain terms, Cn1ncc2c(N)nc3cc(Cl)c(C(=O)N4CC5(CN4c4ncc(Br)cc4F)CC(F)(F)C5)cc3c21 has a documented Selectivity HCT 116-WT/ HCT116 MTAP KO of 15.00

###

- TARGET_OR_TEST_SYSTEM: PRMT5-MTA (Homo sapiens, UniProt O14744)
- PROTOCOL_NOTES: Enzymatic inhibitory activity against PRMT5-MTA (AlphaScreen)
- Type: biochemical
- CONDITION_DETAILS: read-out: IC50
Entries and their IC50
Quick note: number first, unit second.

Examples from the recorded data:
Cc1cc2cc(C(=O)N(Cc3ccc(C(F)(F)F)cn3)N(C)c3ncc(P(C)(C)=O)cn3)ccc2nc1N [Example 296] = 1.3 nM
Cc1cc2cc(C(=O)N(Cc3ccc(-c4ccsc4)cn3)N(C)c3ncccn3)ccc2nc1N [Example 201] = 2.1 nM
Cc1cc2cc(C(=O)N(Cc3ccc(C(F)(F)F)cn3)N(c3ncccn3)C3CC3)ccc2nc1N [Example 3] = 2.6 nM
CC(=O)c1ccc(CN(C(=O)c2ccc3nc(N)c(C)cc3c2)N(C)c2ncccn2)nc1 [Example 294] = 1.9 nM
CCc1cc2cc(C(=O)N(Cc3ccc(C(F)(F)F)cn3)N(C)c3ncccn3)ccc2nc1N [Example 305] = 2.3 nM

In plain terms, Cc1cc2cc(C(=O)N(Cc3ccc(-c4ccn(C)n4)cn3)N(C)c3ncccn3)ccc2nc1N [Example 168] has a documented IC50 of 2.6 nM

In plain terms, Cc1cc2cc(C(=O)N(Cc3ccc(-c4cnn(C5COC5)c4)cn3)N(C)c3ncccn3)ccc2nc1N [Example 169] has a documented IC50 of 2.5 nM

In plain terms, Cc1cc2cc(C(=O)N(Cc3ccc(C(F)(F)F)cn3)N(C)c3ncc(C#N)cn3)ccc2nc1N [Example 58] has a documented IC50 of 4 nM

In plain terms, Cc1cc2cc(C(=O)N(Cc3ccc(Br)cc3F)N(C)c3ncccn3)ccc2nc1N [Example 84] has a documented IC50 of 3.4 nM

In plain terms, Cc1cc2cc(C(=O)N(Cc3ccc(C(F)(F)F)cn3)N(C)c3ncc(I)cn3)ccc2nc1N [Example 267] has a documented IC50 of 1.8 nM

In plain terms, Cn1ncc2c(N)nc3cc(Cl)c(C(=O)N4CC5(CC5)CN4c4ncc(Cl)cc4F)cc3c21 [Example 347] has a documented IC50 of 7.1 nM
